Below, each entry is listed alongside its reported MIC.
# Test system: Escherichia coli
# assay_details: Antibacterial activity against Escherichia coli ATCC 25922
# Format: functional

Query: Please look up its MIC: CCCCCCCCCC(=O)N[C@@H](CCCCN)CN1CC(=O)N(c2ccc(N3CN(C[C@H](CCCCN)NC(=O)CCCCCCCCC)CC3=O)cc2)C1
Result: 5 µg/mL

Query: Please look up its MIC: CCCCCCCC(=O)N[C@@H](CCCCN)CN1CC(=O)N(c2ccc(N3CN(C[C@H](CCCCN)NC(=O)CCCCCCC)CC3=O)cc2)C1
Result: > 25 µg/mL

Query: Please look up its MIC: CCCCCCCCCCCCCCCC(=O)N[C@@H](CCCCN)CN1CC(=O)N(c2ccc(N3CN(C[C@H](CCCCN)NC(=O)CCCCCCCCCCCCCCC)CC3=O)cc2)C1
Result: > 25 µg/mL

Recorded values, source ChEMBL document CHEMBL4699493.
